Some molecules, each annotated with its measured half-life.
Assay: Half life in IMDM culture medium by LC-MS analysis
Type: physicochemical
Answer with a number only, understood to be in h.

Worked examples follow.
COc1cc(/C=C\c2ccc(ON[C@H](Cc3ccccc3)C(=O)N[C@@H](CCCNC(=N)N)C(=O)N[C@H]3CSSCCN(CC(N)=O)C(=O)[C@H](Cc4ccccc4)NC(=O)[C@H]([C@@H](C)O)NC(=O)[C@H](CCCCN)NC(=O)[C@@H](Cc4c[nH]c5ccccc45)NC(=O)[C@H](Cc4ccccc4)NC3=O)c(OC(=O)NCCCC(C)=O)c2)cc(OC)c1OC: 15
COc1cc(C2c3[nH]c4ccccc4c3CC3COC(=O)N32)cc(OC)c1OC(=O)NCCCC(=O)N[C@H](Cc1ccccc1)C(=O)N[C@@H](CCCNC(=N)N)C(=O)N[C@H]1CSSCCN(CC(N)=O)C(=O)[C@H](Cc2ccccc2)NC(=O)[C@H]([C@@H](C)O)NC(=O)[C@H](CCCCN)NC(=O)[C@@H](Cc2c[nH]c3ccccc23)NC(=O)[C@H](Cc2ccccc2)NC1=O (some centres undefined): 3
COc1ccc(/C=C\c2cc(OC)c(OC)c(OC)c2)cc1OC(=O)NCCCC(=O)N[C@H](Cc1ccccc1)C(=O)N[C@H]1CSSCCN(CC(N)=O)C(=O)[C@H](Cc2ccccc2)NC(=O)[C@H]([C@@H](C)O)NC(=O)[C@H](CCCCN)NC(=O)[C@H](Cc2c[nH]c3ccccc23)NC(=O)[C@@H](Cc2c[nH]c3ccccc23)NC(=O)[C@H](Cc2ccccc2)NC1=O: 18

[Q] Recorded half-life for COc1cc(C2c3[nH]c4ccccc4c3CC3COC(=O)N32)cc(OC)c1OC(=O)NCCCC(=O)N[C@H](Cc1ccccc1)C(=O)N[C@H]1CSSCCN(CC(N)=O)C(=O)[C@H](Cc2ccccc2)NC(=O)[C@H]([C@@H](C)O)NC(=O)[C@H](CCCCN)NC(=O)[C@H](Cc2c[nH]c3ccccc23)NC(=O)[C@@H](Cc2c[nH]c3ccccc23)NC(=O)[C@H](Cc2ccccc2)NC1=O (some centres undefined) , please?
[A] 5
